Assay notes: pKa measurement by pH metric method
Assay type: physicochemical
Condition set: protonated TPA023B; titrated pH 2 to pH 12, extrapolated to aqueous pKa
Reported endpoint: pKa

// query Consider the compound shown here: CC(C)(O)c1cnn2c(-c3ccc(F)c(-c4c(F)cccc4C#N)c3)cnc2n1 [TPA023B] What is its recorded pKa?
// result ~2.19

---

Assay notes: Approximate solubility of TPA023B Phosphate in solvents (stepwise solvent addition)
Assay type: physicochemical
Condition set: organic solvent or mixture, thermodynamic from solid; MTBE, 50° C.
Reported endpoint: solubility

// query Consider the compound shown here: CC(C)(O)c1cnn2c(-c3ccc(F)c(-c4c(F)cccc4C#N)c3)cnc2n1.O=P(O)(O)O [Phosphate Polymorphic Form A] What is its recorded solubility?
// result < 2000 µg/mL
